Molecular target: KRAS(G12C) (Homo sapiens, UniProt P01116, G12C)
Sequence (P01116 1-188 isoform P01116-2 G12C): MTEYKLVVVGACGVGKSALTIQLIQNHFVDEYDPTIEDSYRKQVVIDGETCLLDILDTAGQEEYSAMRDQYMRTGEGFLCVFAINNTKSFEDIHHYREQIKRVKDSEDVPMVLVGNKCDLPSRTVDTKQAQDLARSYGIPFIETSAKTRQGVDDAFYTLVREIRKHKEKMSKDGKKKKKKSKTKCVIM
Experiment: KRAS(G12C)/SOS1 homogeneous time-resolved fluorescence (HTRF) assay
Details: absence of GTP, 4° C. for 3 hr, read-out: KRAS (G12C) binding
pIC50: −log10 of the molar value.
Measure name: pIC50

- C=CC(=O)N1CCN(c2nc(OCCN3CCC(C(=O)N4CCN(Cc5ccc(-n6c(C(=O)NC)nnc6-c6cc(C(C)C)c(O)cc6O)cc5)CC4)CC3)nc3c2CCN(c2cccc4cccc(Cl)c24)C3)C[C@@H]1CC#N [Compound 239]: > 7.00
- C=CC(=O)N1CCN(c2nc(OCCN3CCN(C4CCN(Cc5ccc(-n6c(O)nnc6-c6cc(C)c(O)cc6O)cc5)CC4)CC3)nc3c2CCN(c2cccc4cccc(Cl)c24)C3)C[C@@H]1CC#N [Compound 267]: > 7.00
- C=CC(=O)N1CCN(c2nc(OC[C@@H]3C[C@H](N4CCC5(CCN(C(=O)C6CCN(Cc7ccc(-n8c(C(=O)NCC(F)(F)F)nnc8-c8cc(C(C)C)c(O)cc8O)cc7)CC6)CC5)CC4)CN3C)nc3c2CCN(c2cccc4cccc(Cl)c24)C3)C[C@@H]1CC#N [Compound 311]: > 7.00
- C=CC(=O)N1CCN(c2nc(OC[C@@H]3C[C@H](NC(=O)C4CCN(C(=O)c5ccc(-n6c(O)nnc6-c6cc(C(C)C)c(O)cc6O)cc5)CC4)CN3C)nc3c2CCN(c2cccc4cccc(Cl)c24)C3)C[C@@H]1CC#N [Compound 315]: > 7.00
- C=CC(=O)N1CCN(c2nc(OC[C@@H]3C[C@@H](NC(=O)C4CCN(Cc5ccc(-n6c(C(=O)NCC(F)(F)F)nnc6-c6cc(C(C)C)c(O)cc6O)cc5)CC4)CN3C)nc3c2CCN(c2cccc4cccc(Cl)c24)C3)C[C@@H]1CC#N [Compound 200]: > 7.00
- C=CC(=O)N1CCN(c2nc(NCCC(=O)N3CCC(CN4CCN(Cc5ccc(-n6c(C(=O)NCC(F)(F)F)nnc6-c6cc(CC)c(O)cc6O)cc5)CC4)CC3)nc3c2CCN(c2cc(O)cc4ccccc24)C3)CC1 [Compound 17, trifluoroacetic acid]: < 6.00
- C=CC(=O)N1CCN(c2nc(OCCN3CCC4(CC3)CCN(C(=O)C3CCN(Cc5ccc(-n6c(C(=O)NCC(F)(F)F)nnc6-c6cc(C(C)C)c(O)cc6O)cc5)CC3)CC4)nc3c2CCN(c2cccc4cccc(Cl)c24)C3)C[C@@H]1CC#N [Compound 209]: > 7.00
- C=CC(=O)N1CCN(c2nc(OCCN3CCC(C(=O)N4CCC(Cc5ccc(-n6c(C(=O)NCC(F)(F)F)nnc6-c6cc(C(C)C)c(O)cc6O)cc5)CC4)CC3)nc3c2CCN(c2cccc4cccc(Cl)c24)C3)C[C@@H]1CC#N [Compound 212]: 6.00 to 7.00
- C=C(F)C(=O)N1CCN(c2nc(OCCN3CCN(C(=O)C4CCN(Cc5ccc(-n6c(O)nnc6-c6cc(C(C)C)c(O)cc6O)cc5)CC4)CC3)nc3c2CCN(c2cccc4cccc(Cl)c24)C3)C[C@@H]1CC#N [Compound 224]: < 6.00
